# tested.target: Coagulation factor XII (Homo sapiens, UniProt P00748)
# Sequence (P00748 20-372 limits assumed): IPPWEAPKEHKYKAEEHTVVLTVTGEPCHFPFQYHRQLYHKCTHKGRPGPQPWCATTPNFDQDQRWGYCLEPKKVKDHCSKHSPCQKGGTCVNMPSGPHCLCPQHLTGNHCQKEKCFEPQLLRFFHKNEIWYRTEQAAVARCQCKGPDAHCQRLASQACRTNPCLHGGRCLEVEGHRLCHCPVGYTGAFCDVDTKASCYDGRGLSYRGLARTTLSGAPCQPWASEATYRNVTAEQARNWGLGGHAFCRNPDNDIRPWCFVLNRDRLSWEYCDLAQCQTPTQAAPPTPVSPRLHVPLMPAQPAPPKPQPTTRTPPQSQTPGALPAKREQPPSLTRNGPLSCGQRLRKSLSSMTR
# Sequence (P00748 373-615 limits assumed): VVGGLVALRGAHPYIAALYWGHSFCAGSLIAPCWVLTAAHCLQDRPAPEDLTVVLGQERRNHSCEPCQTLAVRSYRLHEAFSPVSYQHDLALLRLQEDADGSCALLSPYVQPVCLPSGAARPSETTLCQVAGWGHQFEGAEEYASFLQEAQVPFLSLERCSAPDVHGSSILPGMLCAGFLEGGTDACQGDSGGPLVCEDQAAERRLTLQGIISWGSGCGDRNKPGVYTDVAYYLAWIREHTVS
# assay.text: Inhibition of human factor 12a using Boc-Gly-Gln-Arg-AMC substrate incubated for 1 hr in presence of 0% Tween20 surfactant by fluorescence assay

| substance.smiles | tested.target | IC50 (nM) |
| --- | --- | --- |
| COc1ccccc1C(=O)n1nc(-c2cccnc2)nc1N | Coagulation factor XII (Homo sapiens, UniProt P00748) | 1850 |

###

# tested.target: Coagulation factor XII (Homo sapiens)
# assay.text: Inhibition of human factor 12a using Boc-Gly-Gln-Arg-AMC substrate incubated for 1 hr by fluorescence assay
pIC50: −log10 of the molar value.

| substance.smiles | pIC50 |
| --- | --- |
| COc1cccc(/C=C(\C#N)c2nc3ccccc3[nH]2)c1 | < 4.30 |
| COc1ccccc1C(=O)n1nnc2ccccc21 | 5.14 |
| Cc1ccc2nc(/C(C#N)=C/c3ccccc3)[nH]c2c1 | < 4.30 |
| COc1ccc(/C=C(\C#N)c2nc3ccccc3[nH]2)cc1OC | < 4.30 |
| COc1ccccc1C(=O)n1nc(-c2cccnc2)nc1N | 6.17 |
| N#C/C(=C\c1ccccc1)c1nc2ccccc2[nH]1 | < 4.30 |

###

# tested.target: Coagulation factor XII (Homo sapiens)
# assay.text: Inhibition of human factor 12a using Boc-Gly-Gln-Arg-AMC substrate incubated for 1 hr by fluorescence assay
pIC50: −log10 of the molar value.
Documented pIC50 across a set of molecules
measured.property: pIC50

| substance.smiles | tested.target | measured.property | operator.symbol | endpoint.value |
| --- | --- | --- | --- | --- |
| Cc1ccc(/C=C(\C#N)c2nc3ccccc3[nH]2)cc1 | Coagulation factor XII (Homo sapiens) | pIC50 | < | 4.30 |
| O=C(c1ccc(Br)cc1)n1nnc2ccccc21 | Coagulation factor XII (Homo sapiens) | pIC50 | = | 6.22 |
| COc1cc(OC)cc(C(=O)n2nnc3ccccc32)c1 | Coagulation factor XII (Homo sapiens) | pIC50 | = | 4.60 |
| COC(=O)c1ccc(/C=C(\C#N)c2nc3ccc(C)cc3[nH]2)cc1 | Coagulation factor XII (Homo sapiens) | pIC50 | < | 4.30 |
| O=C(c1ccco1)n1nnc2ccccc21 | Coagulation factor XII (Homo sapiens) | pIC50 | = | 4.47 |
| O=C(c1ccc(Cl)cc1)n1nnc2ccccc21 | Coagulation factor XII (Homo sapiens) | pIC50 | = | 4.50 |
| COc1ccc(/C=C(\C#N)c2nc3ccc(C)cc3[nH]2)cc1 | Coagulation factor XII (Homo sapiens) | pIC50 | < | 4.30 |

###

# tested.target: Coagulation factor XII (Homo sapiens)
# assay.text: Inhibition of human factor 12a using Boc-Gly-Gln-Arg-AMC substrate incubated for 1 hr in presence of 0.01% Tween20 surfactant by fluorescence assay
pIC50: −log10 of the molar value.

| substance.smiles | tested.target | pIC50 |
| --- | --- | --- |
| COc1ccccc1C(=O)n1nc(-c2cccnc2)nc1N | Coagulation factor XII (Homo sapiens) | 5.58 |

###

# tested.target: Coagulation factor XII (Homo sapiens)
# assay.text: Inhibition of human factor 12a using Boc-Gly-Gln-Arg-AMC substrate incubated for 1 hr in presence of 0.02% Tween20 surfactant by fluorescence assay
pIC50: −log10 of the molar value.

| substance.smiles | pIC50 |
| --- | --- |
| COc1ccccc1C(=O)n1nc(-c2cccnc2)nc1N | 5.61 |
